Target: human IL4Rα expressed on HEK293T-IL4Rα-STAT6-STAT6LUC-LB2 cells (human, UniProt P24394 26-825)
Test: cell-based or functional assay
METRIC_NAME: Inhibition on IL4 induced STAT6 phosphorylation (IC50, nM)
Write the quantity with the unit trailing the number.

Recorded results for 4 binders are shown here.
mouse antibody B9D1D11F8D8 (antibody, V domains shown, Mouse hybridoma mAb) VH: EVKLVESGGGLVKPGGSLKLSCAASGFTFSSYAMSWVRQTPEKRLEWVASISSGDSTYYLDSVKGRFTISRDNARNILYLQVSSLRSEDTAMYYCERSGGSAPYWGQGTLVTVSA VL: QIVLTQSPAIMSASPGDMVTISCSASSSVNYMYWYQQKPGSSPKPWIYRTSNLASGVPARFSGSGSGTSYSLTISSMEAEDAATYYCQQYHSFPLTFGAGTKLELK : 0.23 nM
mouse antibody B8G11F2B7G5E8 (antibody, V domains shown, Mouse hybridoma mAb; also called Mouse B8G11F2B7G5E8; mAb B8G11F2B7G5E8) VH: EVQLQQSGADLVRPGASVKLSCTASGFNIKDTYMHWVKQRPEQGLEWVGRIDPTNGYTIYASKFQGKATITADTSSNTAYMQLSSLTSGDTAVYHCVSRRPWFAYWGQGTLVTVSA VL: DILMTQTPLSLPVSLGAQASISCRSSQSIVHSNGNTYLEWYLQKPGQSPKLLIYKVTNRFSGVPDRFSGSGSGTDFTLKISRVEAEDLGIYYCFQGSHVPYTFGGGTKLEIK : 0.23 nM
mouse antibody C2C1A1A1 (antibody, V domains shown, Mouse hybridoma mAb; also called Mouse C2C1A1A1) VH: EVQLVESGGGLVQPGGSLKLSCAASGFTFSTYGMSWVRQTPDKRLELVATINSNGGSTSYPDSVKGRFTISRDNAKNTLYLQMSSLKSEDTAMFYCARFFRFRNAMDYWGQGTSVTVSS VL: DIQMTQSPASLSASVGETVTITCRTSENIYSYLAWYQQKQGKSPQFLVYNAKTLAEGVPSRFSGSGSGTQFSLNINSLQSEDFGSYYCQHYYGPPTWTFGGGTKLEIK : 0.16 nM
mouse antibody B1D2F7D3B5 (antibody, V domains shown, Mouse hybridoma mAb) VH: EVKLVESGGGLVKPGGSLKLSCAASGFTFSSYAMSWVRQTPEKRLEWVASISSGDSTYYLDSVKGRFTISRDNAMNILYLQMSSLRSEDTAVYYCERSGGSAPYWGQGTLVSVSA VL: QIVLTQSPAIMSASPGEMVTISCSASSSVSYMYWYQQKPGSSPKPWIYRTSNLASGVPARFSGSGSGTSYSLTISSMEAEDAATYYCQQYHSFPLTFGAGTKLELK : 0.17 nM

Now turn to the next binder.
Sample mouse antibody C2B2F7B7 (antibody, V domains shown, Mouse hybridoma mAb) VH: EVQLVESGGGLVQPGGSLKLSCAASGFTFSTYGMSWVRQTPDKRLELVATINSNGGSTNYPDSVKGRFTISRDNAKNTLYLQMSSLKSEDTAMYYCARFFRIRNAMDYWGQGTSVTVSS VL: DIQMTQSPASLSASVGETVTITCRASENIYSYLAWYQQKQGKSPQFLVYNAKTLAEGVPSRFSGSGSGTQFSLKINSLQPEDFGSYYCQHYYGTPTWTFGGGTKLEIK — what was its Inhibition on IL4 induced STAT6 phosphorylation (IC50, nM)?
0.17 nM
